Values from patent US12630579B2

# Tested on: target protein in liver cancer cells (HUH-7)
# run description: Proteolysis test (Western blot of target protein)
# Assay type: cell-based
# experimental context: HUH-7, 24 hours
Can you tell me DC50 for the items I'm about to list?
Numbers only, in nM.

compound="COc1cc2nccc(Oc3ccc(NC(=O)NC4CC4)c(Cl)c3)c2cc1C(=O)NCCCCCCC(=O)N[C@H](C(=O)N1C[C@H](O)C[C@H]1C(=O)NCc1ccc(-c2scnc2C)cc1)C(C)(C)C [WGint4 (003006)]" assay_metric=DC50 readout_value=150

For each of the items listed, what is its DC50?
1. COc1cc2nccc(Oc3ccc(NC(=O)NC4CC4)c(Cl)c3)c2cc1C(=O)NCCCCCCC(=O)N[C@H](C(=O)N1C[C@H](OP(=O)(O)OCCCCCCCCCC(=O)NC(CNC(=O)CCCCCCOC2OC(CO)C(O)C(O)C2NC(C)=O)CNC(=O)CCCCCCOC2OC(CO)C(O)C(O)C2NC(C)=O)C[C@H]1C(=O)NCc1ccc(-c2scnc2C)cc1)C(C)(C)C (stereo partly shown) [WG-2(00300629)]
2. CC(=O)N[C@H]1[C@H](OCCCCC(=O)NCCCNC(=O)CCOCC(COCCC(=O)NCCCNC(=O)CCCCO[C@@H]2O[C@H](CO)[C@H](O)[C@H](O)[C@H]2NC(C)=O)(COCCC(=O)NCCCNC(=O)CCCCO[C@@H]2O[C@H](CO)[C@H](O)[C@H](O)[C@H]2NC(C)=O)NC(=O)CCCCCCCCCOP(=O)(O)O[C@@H]2C[C@@H](C(=O)NCc3ccc(-c4scnc4C)cc3)N(C(=O)[C@@H](NC(=O)COCCOCCN(C)C(=O)c3cc(Oc4ccc(NC(=O)Nc5ccc(Cl)c(C(F)(F)F)c5)cc4)ccn3)C(C)(C)C)C2)O[C@H](CO)[C@H](O)[C@@H]1O [WG-3(00400639)]
3. COc1cc2nccc(Oc3ccc(NC(=O)NC4CC4)c(Cl)c3)c2cc1C(=O)NCCCCCCC(=O)N[C@H](C(=O)N1C[C@H](OP(=O)(O)OCCCCCCCCCC(=O)NC(COCCC(=O)NCCCNC(=O)CCCCOC2OC(CO)C(O)C(O)C2NC(C)=O)(COCCC(=O)NCCCNC(=O)CCCCOC2OC(CO)C(O)C(O)C2NC(C)=O)COCCC(=O)NCCCNC(=O)CCCCOC2OC(CO)C(O)C(O)C2NC(C)=O)C[C@H]1C(=O)NCc1ccc(-c2scnc2C)cc1)C(C)(C)C (stereo partly shown) [WG-1 (00300639)]

1. 21.4
2. 81.4
3. 18

====

# run description: Solubility test (equilibrium solubility in deionized water, HPLC)
# Format: physicochemical
# experimental context: thermodynamic from solid, 37° C.
assay metric: solubility thermodynamic at 12 h (µM)
Answers are plain numbers, in µM.

Looking for the measured solubility thermodynamic at 12 h of COc1cc2nccc(Oc3ccc(NC(=O)NC4CC4)c(Cl)c3)c2cc1C(=O)NCCCCCCC(=O)N[C@H](C(=O)N1C[C@H](OP(=O)(O)OCCCCCCCCCC(=O)NC(COCCC(=O)NCCCNC(=O)CCCCOC2OC(CO)C(O)C(O)C2NC(C)=O)(COCCC(=O)NCCCNC(=O)CCCCOC2OC(CO)C(O)C(O)C2NC(C)=O)COCCC(=O)NCCCNC(=O)CCCCOC2OC(CO)C(O)C(O)C2NC(C)=O)C[C@H]1C(=O)NCc1ccc(-c2scnc2C)cc1)C(C)(C)C (stereo partly shown) , can you help?
677
